All figures here come from ChEMBL document CHEMBL3885861.

# Species: Rattus norvegicus
# assayName: Open TG-GATES - Regimen: Daily Repeat
# Type: toxicity, organism-based, Sprague-Dawley
# Parameters: regimen Daily Repeat, gender Male, age 6 weeks
# conditionInfo: in vivo, po, 100 mg/kg, […], tissue Plasma, route gavage, dose level Low, time 14 day
This listing pairs compounds with measured TC.
observedProperty: TC

1) CC(C)(S)[C@@H](N)C(=O)O [PENICILLAMINE]: 85 mg/dL
2) CCN1CCCC1CNC(=O)c1cc(S(N)(=O)=O)ccc1OC (centres undefined) [SULPIRIDE]: 67.5 mg/dL
3) O=C(O)c1cccnc1 [NIACIN]: 66.8 mg/dL
4) O=C(N[C@H](CO)[C@H](O)c1ccc([N+](=O)[O-])cc1)C(Cl)Cl [CHLORAMPHENICOL]: 77.8 mg/dL
